Tested on: BALB/C mice
Assay: Local tolerance determination by footpad injection
Assay type: in vivo
Settings: cirRNA (SEQ ID NO: 1) LNP, 0.175 mg*kg-1 subcutaneous into the footpad, 24 hours post minus prior
A collection of compounds and their measured Footpad Thickness (24 h−0 h, mm)
# value in mm; strip the unit string

{"columns": ["compound", "Footpad Thickness (24 h−0 h, mm)"],
 "data": [
  ["CCCCCCCCC(CCCCCC)C(=O)OCCCCCCCCN(CCCCCCCCCCC(=O)OCCCCCC)CCOC(=O)NCCN(C)C (stereo not drawn)", 0.33]
]}

INPUT: Send back BALB/C mice Footpad Thickness (24 h−0 h, mm) of CCCCCCCCCCC(CCCCCCCC)COC(=O)CCCCCN(CCCCCC(=O)OCC(CCCCCCCC)CCCCCCCCCC)CCOC(=O)NCCN(C)C (stereo not drawn) only.
OUTPUT: 0.95

INPUT: Recall the reported Footpad Thickness (24 h−0 h, mm) of CCCCCCCCC(CCCCCC)C(=O)OCCCCCCCCN(CCCCCCCCOC(=O)C(CCCCCC)CCCCCCCC)CCCOC(=O)NCCN1CCCCC1 (stereo not drawn) when tested on BALB/C mice.
OUTPUT: 0.25

INPUT: Recall the reported Footpad Thickness (24 h−0 h, mm) of CCCCCCCCC(CCCCCCCC)OC(=O)CCCCCCCN(CCCCCCCCOC(=O)C(CCCCCC)CCCCCCCC)CCCOC(=O)NCCN(C)C (stereo not drawn) on BALB/C mice and write it down.
OUTPUT: 0.53

INPUT: Provide Footpad Thickness (24 h−0 h, mm), recorded with BALB/C mice, of CCCCCCCCC(CCCCCC)C(=O)OCCCCCCCCN(CCCCCCCCOC(=O)C(CCCCCC)CCCCCCCC)CCCOC(=O)NCCCN(CC)CC (stereo not drawn)
OUTPUT: 0.89

INPUT: Retrieve Footpad Thickness (24 h−0 h, mm) on BALB/C mice; query CCCCC/C=C\C/C=C\CCCCCCCCN(CCCCCCCC(=O)OC(CCCCCCCC)CCCCCCCC)CCOC(=O)NCCN1CCCCC1
OUTPUT: 0.94

###

Test: LNP zeta potential (Zetasizer)
Type: physicochemical
Details: LNP with cirRNA (SEQ ID NO: 1)
measuredProperty: Zeta (mV)
Value expressed in mV; do not type the unit.

{"columns": ["compound", "Zeta (mV)"],
 "data": [
  ["CCCCCCCCC(CCCCCCCC)OC(=O)CCCCCCCN(CCCCCCCCOC(=O)C(CCCCCC)CCCCCCCC)CCCOC(=O)NCCN1CCN(C)CC1 (stereo not drawn)", "−0.6677"],
  ["CCCCC/C=C\\C/C=C\\CCCCCCCCN(CCCCCCCC(=O)OC(CCCCCCCC)CCCCCCCC)CCOC(=O)NCCN1CCOCC1", "−8.698"]
]}

In the following, a different compound is considered.
INPUT: Please look at this compound and report its Zeta (mV): CCCCCCCCCCCOC(=O)CCCCCN(CCCCCCCCOC(=O)C(CCCCCC)CCCCCCCC)CCOC(=O)NCCN(C)C (stereo not drawn)
OUTPUT: 10.78

###

Tested on: BALB/C mice
Assay: In vivo expression, whole-body luminescence (IVIS)
Conditions: cirRNA (SEQ ID NO: 1) LNPs, BALB/C mice
Listing of entries alongside the reported In vivo Expression (Whole Body).

{"columns": ["molecule", "In vivo Expression (Whole Body)"],
 "data": [
  ["CCCCCCCCC(CCCCCCCC)OC(=O)CCCCCCCN(CCCCCCCCOC(=O)C(CCCCCC)CCCCCCCC)CCCNCCN(C)C (stereo not shown) [Lipid 363]", "2.22E+06"],
  ["CCCCCCCCC(CCCCCCCC)OC(=O)CCCCCCCN(CCCCCCCCOC(=O)C(CCCCCC)CCCCCCCC)CCCOC(=O)NCCN1CCCC1 (stereo not shown) [Lipid 350]", "1.03E+08"]
]}

INPUT: Find the measured In vivo Expression (Whole Body) of CCCCCCCCCC(=O)OCCCCCCCN(CCCCCCCCOC(=O)C(CCCCCC)CCCCCCCC)CCCOC(=O)NCCCN(CC)CC (stereo not shown) [Lipid 361] and report it.
OUTPUT: 1.10E+06

INPUT: Read off the recorded In vivo Expression (Whole Body) for CCCCCCCCCCCOC(=O)CCCCCN(CCCCCCCC(=O)OC(CCCCCCCC)CCCCCCCC)CCOC(=O)NCc1ncc[nH]1 [Lipid 159]
OUTPUT: 1.95E+07

###

Tested on: RAW 264.7 cells
Experiment: In vitro toxicity (CellTiter-Glo cell viability), RAW 264.7;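 further: percent of untreated cells luminescence signal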
Type: cell-based
Conditions: cirRNA (SEQ ID NO: 1) LNPs; RAW 264.7 cells
Method: RAW 264.7 and Hep G2 cells were transfected with 1 μg/mL RNA-LNPs. At 72 hours post transfection, cell viability was determined with the CellTiter-Glo® reagent kit, according to the kit protocol, measured by a luminometer. The cell viability was calculated according to the following formula: […]
measuredProperty: In vitro Viability RAW (%)
Numbers only; they are read as %.

Worked set:
{"columns": ["compound", "numericResult"],
 "data": [
  ["CCCCC/C=C\\CCOC(=O)CCCCCN(CCCCCCCCOC(=O)C(CCCCCC)CCCCCCCC)CCOC(=O)NCCN1CCOCC1 (stereo not shown)", 87],
  ["CCCCC/C=C\\C/C=C\\CCCCCCCCN(CCCCCCCC/C=C\\C/C=C\\CCCCC)CCOC(=O)NCCN1CCOCC1", 95],
  ["CCCCCCCCCC(=O)OCCCCCCCN(CCCCCCCCOC(=O)C(CCCCCC)CCCCCCCC)CCOC(=O)NCCCN(C)C (stereo not shown)", 3],
  ["CCCCCCCCC(CCCCCCCC)OC(=O)CCCCCCCN(CCCCCCCCOC(=O)C(CCCCCC)CCCCCCCC)CCCOC(=O)NCc1ncc[nH]1 (stereo not shown)", 102],
  ["CCCCC/C=C\\C/C=C\\CCCCCCCCN(CCCCCC(=O)OCCCCCCCCCCC)CCOC(=O)NCc1ncc[nH]1", 24]
]}

INPUT: Please report the measured In vitro Viability RAW for CCCCCCCCCCCOC(=O)CCCCCN(CCCCCC(=O)OCCCCCCCCCCC)CCOC(=O)NCCCN(C)C
OUTPUT: 104

INPUT: Please give the documented In vitro Viability RAW of CCCCCCCCCCCOC(=O)CCCCCN(CCCCCCCC(=O)OC(CCCCCCCC)CCCCCCCC)CCOC(=O)NCCN1CCN(C)CC1
OUTPUT: 93

INPUT: Indicate the recorded In vitro Viability RAW value for this compound: CCCCC/C=C\C/C=C\CCCCCCCCN(CCCCCCCC(=O)OC(CCCCCCCC)CCCCCCCC)CCOC(=O)NCCN(C)C
OUTPUT: 7

INPUT: Give In vitro Viability RAW for the following compound: CCCCCCCCC(CCCCCC)C(=O)OCCCCCCCCN(CCCCCCCCOC(=O)C(CCCCCC)CCCCCCCC)CCCOC(=O)NCCN1CCCCCC1 (stereo not shown)
OUTPUT: 89

INPUT: // Input: CCCCCCCCC(CCCCCCCC)OC(=O)CCCCCCCN(CCCCCCCCOC(=O)C(CCCCCC)CCCCCCCC)CCCOC(=O)NCCCN(C)C (stereo not shown) . Output its In vitro Viability RAW only.
OUTPUT: 73

INPUT: Read off the recorded In vitro Viability RAW for CCCCCCCC/C=C\CCCCCCCCN(CCCCCCCCOC(=O)C(CCCCCC)CCCCCCCC)CCOC(=O)NCc1ncc[nH]1 (stereo not shown)
OUTPUT: 82

INPUT: Look up and state reported In vitro Viability RAW for CCCCCCCCC(CCCCCCCC)OC(=O)CCCCCCCN(CCCCCCCCOC(=O)C(CCCCCC)CCCCCCCC)CCCOC(=O)NCCN1CCCCCC1 (stereo not shown)
OUTPUT: 45

INPUT: Fill in reported In vitro Viability RAW for this entry: CCCCC/C=C\C/C=C\CCCCCCCCN(CCCCCCCC/C=C\CCCCCCCC)CCOC(=O)NCCCN(CC)CC
OUTPUT: 102

###

Listed compounds paired with reported Encapsulation Efficiency %
Assay: RNA encapsulation efficacy by Quant-IT Ribogreen kit
Format: physicochemical
Details: LNP with cirRNA (SEQ ID NO: 1)
A number alone suffices; assume %.

Examples from the recorded data:
{"columns": ["compound", "measuredProperty", "numericResult"],
 "data": [
  ["CCCCCCCCCC(=O)OCCCCCCCN(CCCCCCCCOC(=O)C(CCCCCC)CCCCCCCC)CCCOC(=O)NCCCN(CC)CC (stereo not drawn)", "Encapsulation Efficiency %", 88],
  ["CCCCCCCCCCCOC(=O)CCCCCN(CCCCCCCCOC(=O)C(CCCCCC)CCCCCCCC)CCOC(=O)NCCN1CCCCC1 (stereo not drawn)", "Encapsulation Efficiency %", 92],
  ["CCCCCCCCC(CCCCCC)C(=O)OCCCCCCCCN(CCCCCCCCOC(=O)C(CCCCCC)CCCCCCCC)CCCOC(=O)NCCCN(C)C (stereo not drawn)", "Encapsulation Efficiency %", 93],
  ["CCCCC/C=C\\C/C=C\\CCCCCCCCN(CCCCCCCC(=O)OC(CCCCCCCC)CCCCCCCC)CCOC(=O)NCCN1CCCC1", "Encapsulation Efficiency %", 94]
]}

INPUT: Please report the measured Encapsulation Efficiency % for CCCCC/C=C\C/C=C\CCCCCCCCN(CCCCCCCC/C=C\C/C=C\CCCCC)CCOC(=O)CCCN(C)C [Lipid A, reference compound]
OUTPUT: 74

INPUT: Specify reported Encapsulation Efficiency % for the compound shown: CCCCC/C=C\C/C=C\CCCCCCCCN(CCCCCCCC/C=C\CCCCCCCC)CCOC(=O)NCCN1CCN(C)CC1
OUTPUT: 97

INPUT: Answer with the recorded Encapsulation Efficiency % for the compound listed here: CCCCCCCCCCCOC(=O)CCCCCN(CCCCCCCC(=O)OC(CCCCCCCC)CCCCCCCC)CCOC(=O)NCCCn1ccnc1
OUTPUT: 79

INPUT: Given CCCCCCCOC(=O)CCCCCCCCCN(CCCCCCCCCC(=O)OCCCCCCC)CCOC(=O)NCCN(C)C , respond with its Encapsulation Efficiency %.
OUTPUT: 96

INPUT: Return the recorded Encapsulation Efficiency % value; entry: CCCCCCCCCCCOC(=O)CCCCCN(CCCCCC(=O)OCCCCCCCCCCC)CCOC(=O)NCCN1CCCC1
OUTPUT: 89
